# Lookup of reported viability, T/C keyed by entry
- System: 242566-281-R-J2-PDC complex spheroid viability;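 also: spheroids exposed to compounds for 7 days before readout; 100% = DMSO vehicle control wells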
- METHOD NOTES: Anticancer human tumor 242566-281-R-J2-PDC patient-derived pancreatic carcinoma cell line growth inhibition [CLK]
- EXPERIMENTAL CONTEXT: second compound 10 µM; first compound 0.316 µM; active compounds read low
PROPERTY LABEL: viability, T/C (%)

{"COMPOUND": "C=C(F)C(=O)N1CCN(c2nc(OCC3CCCN3C)nc3c2CCN(c2cccc4cccc(Cl)c24)C3)CC1CC#N (stereo not given) + CN1CCN(c2cc(C(=O)Nc3cc4cc(-c5cnn(C)c5)ccc4cn3)ccn2)CC1", "PROPERTY LABEL": "viability, T/C", "READOUT UNIT": "%", "VALUE OBSERVED": 2.19}
{"COMPOUND": "C#Cc1c(F)ccc2cc(O)cc(-c3ncc4c(N5CC6CCC(C5)N6)nc(OCC56CCCN5CC(F)C6)nc4c3F)c12 (stereo not given) + CNC(=O)c1ccc(Nc2nc(OC3CCCC3)c3c(-c4ccc5nc(C)oc5c4)c[nH]c3n2)c(OC)c1", "PROPERTY LABEL": "viability, T/C", "READOUT UNIT": "%", "VALUE OBSERVED": 13.2}
{"COMPOUND": "O=c1[nH]cc(F)c(=O)[nH]1 + CNC(=O)c1ccc(Nc2nc(OC3CCCC3)c3c(-c4ccc5nc(C)oc5c4)c[nH]c3n2)c(OC)c1", "PROPERTY LABEL": "viability, T/C", "READOUT UNIT": "%", "VALUE OBSERVED": 47.3}
{"COMPOUND": "O=C(c1cc(Cc2n[nH]c(=O)c3ccccc23)ccc1F)N1CCN(C(=O)C2CC2)CC1 + CN1CCN(c2cc(C(=O)Nc3cc4cc(-c5cnn(C)c5)ccc4cn3)ccn2)CC1", "PROPERTY LABEL": "viability, T/C", "READOUT UNIT": "%", "VALUE OBSERVED": 1.53}
{"COMPOUND": "COc1cccc2c1C(=O)c1c(O)c3c(c(O)c1C2=O)CC(O)(C(=O)CO)CC3OC1CC(N)C(O)C(C)O1 (stereo not given) + CNC(=O)c1ccc(Nc2nc(OC3CCCC3)c3c(-c4ccc5nc(C)oc5c4)c[nH]c3n2)c(OC)c1", "PROPERTY LABEL": "viability, T/C", "READOUT UNIT": "%", "VALUE OBSERVED": 3.98}
{"COMPOUND": "COc1c(OCCCN2CCOCC2)ccc2c3n(c(=NC(=O)c4cnc(N)nc4)nc12)CCN3 + CNC(=O)c1ccc(Nc2nc(OC3CCCC3)c3c(-c4ccc5nc(C)oc5c4)c[nH]c3n2)c(OC)c1", "PROPERTY LABEL": "viability, T/C", "READOUT UNIT": "%", "VALUE OBSERVED": 8.81}
{"COMPOUND": "CCN1CCN(Cc2ccc(Nc3ncc(F)c(-c4cc(F)c5nc(C)n(C(C)C)c5c4)n3)nc2)CC1 + CN1CCN(c2cc(C(=O)Nc3cc4cc(-c5cnn(C)c5)ccc4cn3)ccn2)CC1", "PROPERTY LABEL": "viability, T/C", "READOUT UNIT": "%", "VALUE OBSERVED": 1.24}
{"COMPOUND": "COc1c(OCCCN2CCOCC2)ccc2c3n(c(=NC(=O)c4cnc(N)nc4)nc12)CCN3 + CN1CCN(c2cc(C(=O)Nc3cc4cc(-c5cnn(C)c5)ccc4cn3)ccn2)CC1", "PROPERTY LABEL": "viability, T/C", "READOUT UNIT": "%", "VALUE OBSERVED": 1.19}
{"COMPOUND": "C#Cc1c(F)ccc2cc(O)cc(-c3ncc4c(N5CC6CCC(C5)N6)nc(OCC56CCCN5CC(F)C6)nc4c3F)c12 (stereo not given) + CN1CCN(c2cc(C(=O)Nc3cc4cc(-c5cnn(C)c5)ccc4cn3)ccn2)CC1", "PROPERTY LABEL": "viability, T/C", "READOUT UNIT": "%", "VALUE OBSERVED": 0.69}
{"COMPOUND": "CC1(C)CCC(CN2CCN(c3ccc(C(=O)NS(=O)(=O)c4ccc(NCC5CCOCC5)c([N+](=O)[O-])c4)c(Oc4cnc5[nH]ccc5c4)c3)CC2)=C(c2ccc(Cl)cc2)C1 + CN1CCN(c2cc(C(=O)Nc3cc4cc(-c5cnn(C)c5)ccc4cn3)ccn2)CC1", "PROPERTY LABEL": "viability, T/C", "READOUT UNIT": "%", "VALUE OBSERVED": 1.92}
